tested on: Mus musculus; test: Anticonvulsant activity in ip dosed Mus musculus albino (mouse) assessed as protection against subcutaneous pentylenetetrazol-induced seizures; assay type: functional
MEASURED_PROPERTY: ED50 (mg/kg)
Report the figure in mg/kg without appending any unit label.

Sample answers from the record:
COc1ccc(Nc2nnc(Nc3nc(-c4ccc(Br)cc4)cs3)s2)cc1: 79.4
CCCC(CCC)C(=O)O: 149
Cc1ccc(Nc2nnc(Nc3nc(-c4ccc([N+](=O)[O-])cc4)cs3)s2)cc1: 232

Q: Value lookup for ED50; key = CCC1(c2ccccc2)C(=O)NC(=O)NC1=O
A: 13.2

Q: Proceed to COc1ccc(Nc2nnc(Nc3nc(-c4ccc([N+](=O)[O-])cc4)cs3)s2)cc1
A: 433

----------
experiment: Neurotoxicity in ip dosed Mus musculus albino (mouse) after 0.5 hr rotorod test; type: toxicity, organism-based; settings: albino, in vivo
TD50 at 0.5 h values, listed per item

Sample answers from the record:
COc1ccc(Nc2nnc(Nc3nc(-c4ccc([N+](=O)[O-])cc4)cs3)s2)cc1: 550 mg/kg
Cc1ccc(Nc2nnc(Nc3nc(-c4ccc([N+](=O)[O-])cc4)cs3)s2)cc1: 216 mg/kg
CCC1(C)CC(=O)NC1=O (centres undefined) [ETHOSUXIMIDE]: 71.6 mg/kg

Now look at this one.
Q: Value lookup for TD50 at 0.5 h; key = COc1ccc(Nc2nnc(Nc3nc(-c4ccc(Br)cc4)cs3)s2)cc1
A: 713 mg/kg

----------
test system: Mus musculus; assay: Neurotoxicity in ip dosed Mus musculus albino (mouse) after 0.5 hr rotorod test; type: toxicity, organism-based; conditions: in vivo, 0.5 h
MEASURED_PROPERTY: MTC (mg/kg)
Report the figure in mg/kg without appending any unit label.

Sample answers from the record:
CCC1(c2ccccc2)C(=O)NC(=O)NC1=O: 100
Cc1ccccc1Nc1nnc(Nc2nc(-c3ccc([N+](=O)[O-])cc3)cs2)s1: 100

Q: Value lookup for MTC; key = COc1ccc(Nc2nnc(Nc3nc(-c4ccccc4)cs3)s2)cc1
A: 300

Q: Proceed to COc1ccccc1Nc1nnc(Nc2nc(-c3ccc([N+](=O)[O-])cc3)cs2)s1
A: 300

Q: Proceed to O=[N+]([O-])c1ccc(-c2csc(Nc3nnc(Nc4ccccc4)s3)n2)cc1
A: 100

Q: Proceed to Brc1ccc(-c2csc(Nc3nnc(Nc4ccccc4)s3)n2)cc1
A: 300

Q: Proceed to Cc1ccc(Nc2nnc(Nc3nc(-c4ccc(Br)cc4)cs3)s2)cc1
A: 300

Q: Proceed to COc1ccccc1Nc1nnc(Nc2nc(-c3ccc(Br)cc3)cs2)s1
A: 300

Q: Proceed to Cc1ccccc1Nc1nnc(Nc2nc(-c3ccc(Br)cc3)cs2)s1
A: 100

Q: Proceed to COc1ccccc1Nc1nnc(Nc2nc(-c3ccc(Cl)cc3)cs2)s1
A: 300

Q: Proceed to O=C1NC(=O)C(c2ccccc2)(c2ccccc2)N1
A: 100

----------
system: Mus musculus; experiment: Neurotoxicity in ip dosed Mus musculus albino (mouse) after 4 hr rotorod test; assay type: toxicity, organism-based; details: in vivo, 4 h
MTC values, listed per item
Report the figure in mg/kg without appending any unit label.

Sample answers from the record:
Cc1ccccc1Nc1nnc(Nc2nc(-c3ccccc3)cs2)s1: 300
Brc1ccc(-c2csc(Nc3nnc(Nc4ccccc4)s3)n2)cc1: 300
Cc1ccccc1Nc1nnc(Nc2nc(-c3ccc([N+](=O)[O-])cc3)cs2)s1: 300
Cc1ccc(Nc2nnc(Nc3nc(-c4ccc(Br)cc4)cs3)s2)cc1: 300
O=C1NC(=O)C(c2ccccc2)(c2ccccc2)N1 [PHENYTOIN]: 100

Q: # returns recorded MTC (system: Mus musculus) for COc1ccccc1Nc1nnc(Nc2nc(-c3ccc(Br)cc3)cs2)s1
A: 100

----------
system: Mus musculus; assay: Neurotoxicity in ip dosed Mus musculus albino (mouse) after 4 hr rotorod test; type: toxicity, organism-based; conditions: in vivo, 4 h
MEASURED_PROPERTY: MTC (mg/kg)
Report the figure in mg/kg without appending any unit label.

CCC1(c2ccccc2)C(=O)NC(=O)NC1=O: 300
c1ccc(Nc2nnc(Nc3nc(-c4ccccc4)cs3)s2)cc1: 300

Q: Value lookup for MTC; key = COc1ccccc1Nc1nnc(Nc2nc(-c3ccc(Cl)cc3)cs2)s1
A: 300
